# assay_protocol: Cell Viability - MRC5 (AID 434);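 further: cells exposed to compound for 40 hours at 37 °C; potency reflects cytotoxicity seen as loss of intracellular ATP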
# setup_conditions: MRC5 lung fibroblast viability, qHTS
Results filed as inconclusive are left out. Calls of active or inactive are those of the source. The call rests on the fitted dose curve.
In this exercise, the only acceptable responses are Y for active, N for inactive

Record excerpt, results attached:
CCCc1cc(=O)[nH]c(=S)[nH]1 | N
CS(=O)(=O)OCCCCOS(C)(=O)=O | N
NS(=O)(=O)c1cc(C(=O)O)c(NCc2ccco2)cc1Cl | N
CCc1nc(N)nc(N)c1-c1ccc(Cl)cc1 | N
CCCCC(CC)COC(=O)C(C#N)=C(c1ccccc1)c1ccccc1 (configuration not stated) | N

In: I'd appreciate the recorded outcome for "CN(C)c1ccc2nc3ccc(=[N+](C)C)cc-3sc2c1" from this test.
Out: Y

In: Moving on to the next molecule: "Cc1cc(O)c2c(c1)C(=O)c1cc(O)cc(O)c1C2=O"
Out: N

----------
# assay_protocol: NS1 protein of Zika virus - qHTS assay to identify small molecule inhibitors in human HEK 293 cells (AID 1347053); further: nearly all actives have a fitted effect of over 55% in size
# setup_conditions: HEK293 ZIKV MR766 infection, NS1 TR-FRET, 24 h; series mostly up to 46.1 µM
Records with an inconclusive call do not appear. Calls of active or inactive are those of the source. Calls follow the shape of the dose curve; as a rule, active = well fitted inhibition curve with a large enough effect; inconclusive = small, poorly fitted or top-dose-only effect; inactive = no such curve, though single readings can be large or run the other way.
A correct response names exactly one class from YES = active, NO = inactive

Check out these entries, answers already filled in.
Nc1ccc(S(N)(=O)=O)cc1 | NO
Cc1ncc([N+](=O)[O-])n1CC(C)O (stereo not drawn) | NO
CS(=O)(=O)OCCCCOS(C)(=O)=O | NO
O=C(OC1C[C@H]2CC[C@@H](C1)[N+]21CCCC1)C(O)(c1ccccc1)c1ccccc1 (stereo partly drawn) | NO
CCc1nc(N)nc(N)c1-c1ccc(Cl)cc1 | YES
CCN(CC)CCOc1ccc(Cc2ccccc2)cc1 | NO
CCCOc1ccc2nc(NC(=O)OC)[nH]c2c1 | YES
O=C(O)c1cccnc1Nc1cccc(C(F)(F)F)c1 | NO
CC1(C)NC(=O)N(c2ccc([N+](=O)[O-])c(C(F)(F)F)c2)C1=O | NO
N=C(N)c1ccc2cc(OC(=O)c3ccc(N=C(N)N)cc3)ccc2c1 | NO

In: What classification did "CC(C)[C@H](N)C(=O)OCCOCn1cnc2c(=O)[nH]c(N)nc21" end up with in this test?
Out: NO

In: Try "c1ccc2[nH]c(-c3cscn3)nc2c1" next.
Out: NO

----------
Please provide measured parasite growth, % of control (lower = inhibition) for the entries that follow.
# assay_protocol: qHTS profiling of the MIPE4 collection as inhibitors of Plasmodium falciparum (DD2) proliferation (Rep 2) (AID 743346)
# setup_conditions: P. falciparum Dd2 in erythrocytes, SYBR Green DNA, 72 h; at 28.5 µM (top of the series) unless noted

// solved cases for parasite growth, % of control (lower = inhibition) follow
CC(C)c1ccc2oc3nc(N)c(C(=O)O)cc3c(=O)c2c1 | 71.7%
Cc1nccn1CC1CCc2c(c3ccccc3n2C)C1=O (stereo not drawn) | 40.2%
O=C(O)c1cccc(-c2noc(-c3ccccc3F)n2)c1 | 41.6%

State recorded parasite growth, % of control (lower = inhibition) for all listed molecules.
1. COc1c(O)cc2c(c1O)[C@@H]1O[C@H](CO)[C@@H](O)[C@H](O)[C@H]1OC2=O
2. CCN(CC)C(=S)SSC(=S)N(CC)CC
3. Cc1cccc(-c2[nH]ncc2-c2ccc3ncccc3n2)n1
4. O=C(NCCO[N+](=O)[O-])c1cccnc1
5. CCOC(=O)c1c(C)n(C)c2ccc(O)cc12
6. Nc1ccc(S(N)(=O)=O)cc1
7. COc1cc(C(C)=O)ccc1OCCCN1CCC(c2noc3cc(F)ccc23)CC1

Out:
["81.9%", "53.4%", "81.1%", "118%", "87.1%", "95.9%", "40.6%"]

Value sought for every listed molecule: parasite growth, % of control (lower = inhibition).
1. CC(C)(S)[C@@H](N)C(=O)O
2. O=C(O)c1cn(-c2ccc(F)cc2)c2cc(N3CCNCC3)c(F)cc2c1=O

Out:
["76.1%", "50.7%"]

# batch: return parasite growth, % of control (lower = inhibition) for each of the 3 molecules below
1. Cc1cc(C2CCCCC2)n(O)c(=O)c1
2. Cc1cccc(C)c1OCC(=O)N[C@@H](Cc1ccccc1)[C@@H](O)C[C@H](Cc1ccccc1)NC(=O)[C@H](C(C)C)N1CCCNC1=O
3. CCN(CCO)CCCC(C)Nc1ccnc2cc(Cl)ccc12 (stereo not drawn)

Out:
["17.5%", "16.3%", "15.4%"]

Batch request: parasite growth, % of control (lower = inhibition) per item, same order as input.
1. C[C@]12CCC(=O)C=C1CC[C@@H]1[C@H]2[C@@H](O)C[C@@]2(C)[C@H]1CC[C@]2(O)C(=O)CO
2. OC(CN1CCN(c2cccc(Cl)c2)CC1)C(c1ccccc1)c1ccccc1 (stereo not drawn)
3. c1ccc2[nH]c(-c3cscn3)nc2c1
4. Nc1cccc2c1CN(C1CCC(=O)NC1=O)C2=O (stereo not drawn)
5. CN1CCC(=C2c3ccccc3CCc3sccc32)CC1

Out:
["74.9%", "66%", "33.5%", "127% [at 57.5 µM]", "14.9%"]

Please state, for each entry, its recorded parasite growth, % of control (lower = inhibition).
1. COc1cc2c(N3CCN(C(=O)Nc4ccc(OC(C)C)cc4)CC3)ncnc2cc1OCCCN1CCCCC1
2. CCc1nc(N)nc(N)c1-c1ccc(Cl)cc1
3. O=C1c2c(O)cc(O)cc2OC(c2ccc(O)c(O)c2)C1O (stereo not drawn)

Out:
12%
85.4%
64.4%

----------
# study_system: Voltage-gated inwardly rectifying potassium channel KCNH2 (Homo sapiens) (UniProt Q12809)
# Sequence (Q12809 whole entry, looked up): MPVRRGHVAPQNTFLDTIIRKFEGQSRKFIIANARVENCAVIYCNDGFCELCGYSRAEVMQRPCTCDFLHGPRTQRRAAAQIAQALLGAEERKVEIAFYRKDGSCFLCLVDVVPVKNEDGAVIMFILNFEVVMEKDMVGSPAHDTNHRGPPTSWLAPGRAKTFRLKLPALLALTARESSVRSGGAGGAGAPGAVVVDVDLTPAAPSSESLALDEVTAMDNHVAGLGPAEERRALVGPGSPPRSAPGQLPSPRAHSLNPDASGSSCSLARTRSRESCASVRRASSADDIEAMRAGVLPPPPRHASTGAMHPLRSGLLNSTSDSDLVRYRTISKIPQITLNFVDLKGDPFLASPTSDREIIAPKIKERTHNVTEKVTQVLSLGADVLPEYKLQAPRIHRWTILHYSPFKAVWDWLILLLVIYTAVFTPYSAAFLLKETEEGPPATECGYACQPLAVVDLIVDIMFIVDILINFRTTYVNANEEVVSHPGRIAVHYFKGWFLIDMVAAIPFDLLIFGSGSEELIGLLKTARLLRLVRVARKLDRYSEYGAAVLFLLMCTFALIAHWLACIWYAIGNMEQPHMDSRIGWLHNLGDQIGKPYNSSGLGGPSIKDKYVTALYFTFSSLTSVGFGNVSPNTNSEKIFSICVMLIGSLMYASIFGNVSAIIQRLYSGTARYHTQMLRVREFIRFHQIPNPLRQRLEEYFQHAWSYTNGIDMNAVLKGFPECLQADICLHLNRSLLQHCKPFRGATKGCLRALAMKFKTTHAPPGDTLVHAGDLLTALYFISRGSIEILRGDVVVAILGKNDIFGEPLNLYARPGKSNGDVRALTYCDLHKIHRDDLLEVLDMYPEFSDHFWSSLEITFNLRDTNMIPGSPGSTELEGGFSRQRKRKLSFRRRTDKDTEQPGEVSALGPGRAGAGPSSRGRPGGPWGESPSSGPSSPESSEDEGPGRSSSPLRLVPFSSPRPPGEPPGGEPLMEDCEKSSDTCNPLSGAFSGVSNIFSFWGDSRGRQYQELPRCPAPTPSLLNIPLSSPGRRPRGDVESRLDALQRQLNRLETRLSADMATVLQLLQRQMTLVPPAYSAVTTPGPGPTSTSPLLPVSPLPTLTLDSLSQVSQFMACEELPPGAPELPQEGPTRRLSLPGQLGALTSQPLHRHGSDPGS
# assay_protocol: qHTS Assay for Small Molecule Inhibitors of the Human hERG Channel Activity (AID 588834);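 further: lower thallium flux fluorescence means stronger hERG block; nearly all actives have a fitted effect of over 50% in size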
# setup_conditions: U2OS BacMam hERG, FluxOR thallium flux fluorescence; series mostly up to 46.1 µM
Inconclusive results are not listed. Activity calls are given as the source filed them. The call rests on the fitted dose curve; in most records, active means well fitted inhibition curve with a large enough effect; inconclusive means small, poorly fitted or top-dose-only effect; inactive means flat fitted curve, though single readings scatter.
Outcome (select one): active, inactive

CCCCCCCCOc1ccccc1C(=O)Nc1ccc(C(=O)OCC[N+](C)(CC)CC)cc1 | inactive
N[C@@H](Cc1cc(I)c(Oc2cc(I)c(O)c(I)c2)c(I)c1)C(=O)O | inactive

In: Identify the outcome logged in this assay for the compound shown: "COC1=C(OC)C(=O)C(CCCCCCCCCCO)=C(C)C1=O"
Out: inactive

In: Moving on to the next compound: Clc1ccc(C(Cn2ccnc2)OCc2c(Cl)cccc2Cl)c(Cl)c1 (centres undefined)
Out: active

----------
# assay_protocol: qHTS Screen of the MIPE 4.0 Collection Against Ewings Sarcoma (RDES) (AID 1259252); further: nearly all actives have a fitted effect of over 35% in size
# setup_conditions: RD-ES Ewing sarcoma viability, CellTiter-Glo, 48 h; series mostly up to 45.8 µM
Results filed as inconclusive are left out. Calls of active or inactive are those of the source. Calls follow the shape of the dose curve; as a rule, active = well fitted inhibition curve with a large enough effect; inconclusive = small, poorly fitted or top-dose-only effect; inactive = no such curve, though single readings can be large or run the other way.
Use one of these outcomes when replying: 1 = active, -1 = inactive

CCCS(=O)c1ccc2nc(NC(=O)OC)[nH]c2c1 (stereo not given) | 1
CC(=O)O[C@H]1C(=O)[C@@]2(C)C([C@H](OC(=O)c3ccccc3)[C@]3(O)C[C@H](OC(=O)[C@H](O)[C@@H](NC(=O)c4ccccc4)c4ccccc4)C(C)=C1C3(C)C)[C@]1(OC(C)=O)CO[C@@H]1C[C@@H]2O (stereo not given in full) | -1
Cc1ccc(S(=O)(=O)NC(=O)NN2CC3CCCC3C2)cc1 (stereo not given) | 1
CCCCCCCCOc1ccccc1C(=O)Nc1ccc(C(=O)OCC[N+](C)(CC)CC)cc1 | -1

In: Record lookup: outcome of this test for "CCCCc1ccc2nc(NC(=O)OC)[nH]c2c1" ?
Out: 1

In: How about this compound: "CC1(C)C(=O)N(CCN2CCC(C(=O)c3ccc(F)cc3)CC2)c2ccccc21"
Out: -1

----------
# Test system: CP286
# assay_protocol: qHTS profiling for inhibitors of Plasmodium falciparum proliferation (AID 504749); further: nearly all actives have a fitted effect of over 60% in size
# setup_conditions: P. falciparum in erythrocytes, SYBR Green DNA, 72 h; series mostly up to 28.7 µM
Records with an inconclusive call do not appear. Active and inactive are the calls of the source. Calls follow the shape of the dose curve; as a rule, active = well fitted inhibition curve with a large enough effect; inconclusive = small, poorly fitted or top-dose-only effect; inactive = flat fitted curve, though single readings scatter.
One label from this list, please: active, inactive

Before answering, review these 5 worked examples.
Cc1cc2c(s1)Nc1ccccc1N=C2N1CCN(C)CC1 | inactive
CCOc1cc(CC(=O)N[C@@H](CC(C)C)c2ccccc2N2CCCCC2)ccc1C(=O)O | inactive
Cc1cc2cc3c(C)cc(=O)oc3c(C)c2o1 | inactive
Cc1ccc(C)c(OCCCC(C)(C)C(=O)O)c1 | inactive
CCCCCCCCCCCCCCCCCCCCCCO | inactive

In: What did the test return for "CC(C)[C@H](N)C(=O)OCCOCn1cnc2c(=O)[nH]c(N)nc21" ?
Out: inactive

In: Follow-up item: O=C(OC1C[C@H]2CC[C@@H](C1)[N+]21CCCC1)C(O)(c1ccccc1)c1ccccc1 (stereo partly drawn)
Out: active

In: Then CC(S)C(=O)NCC(=O)O (stereo not drawn) ?
Out: inactive

In: Follow-up item: "O=C1c2ccccc2-c2n[nH]c3cccc1c23"
Out: inactive

In: How about O=C(NC(Cc1cc(=O)[nH]c2ccccc12)C(=O)O)c1ccc(Cl)cc1 (stereo not drawn) ?
Out: inactive

In: # iterate: "C=CCc1cc(OC)c(O)c(C(=O)NCCO)c1"
Out: inactive
